- Species: Mus musculus
- Assay Remarks: Effective dose required for maximal electroshock (MES)-induced seizures in mice.
- Assay type: functional
- Run Parameters: Mus musculus; read-out: ED50
Outcome Measure: ED50 (mg/kg)
The figure you give is taken to be in mg/kg; do not add the unit.

Worked examples, 5 compounds total:
# Compound, Unit Abbreviation, Reading
records = [
    ("CC(=O)NC(C(=O)NCc1ccccc1)n1cccn1 (configuration not stated)", "mg/kg", 16.5),
    ("CC(=O)NC(C(=O)NCc1ccccc1)c1ncco1 (configuration not stated)", "mg/kg", 10.4),
    ("CC(=O)NC(C(=O)NCc1ccccc1)C1CCCO1 (configuration not stated)", "mg/kg", 89.8),
    ("CC(=O)N[C@H](C(=O)NCc1ccc(C)cc1)c1ccco1", "mg/kg", 43.6),
    ("C/C(S)=N\\C(C(=O)NCc1ccccc1)c1ccco1 (configuration not stated)", "mg/kg", 18.4),
]

Incoming: Which ED50 value is on record for CC(=O)N[C@H](C(=O)NCc1ccc(C(F)(F)F)cc1)c1ccco1 ?
Outgoing: 22.8

Incoming: Subsequent entry: CC(=O)NC(C(=O)NCc1ccccc1)n1cccc1 (configuration not stated)
Outgoing: 80.2

Incoming: Subsequent entry: CC(=O)N[C@@H](C(=O)NCc1ccc(F)cc1)c1ccco1
Outgoing: 3.5

Incoming: Subsequent entry: CC(=O)NC(C(=O)NCc1ccccc1)c1nccs1 (configuration not stated)
Outgoing: 12.1

Incoming: Subsequent entry: CC(=O)N[C@@H](C(=O)NCc1ccccc1)c1ccco1
Outgoing: 3.3

----------
- Assay Remarks: Protective index (TD50/ED50)
- Type: functional
// PI lookup, one value per entry
Answer with the value's number alone.

Worked examples, 3 compounds total:
# Compound, Reading
data = [
    ("CC(=O)N[C@@H](C(=O)NCc1ccccc1)c1ccco1", 7.2),
    ("CC(=O)N[C@@H](C(=O)NCc1ccc(F)cc1)c1ccco1", 4.1),
    ("CC(=O)NC(C(=O)NCc1ccc(F)cc1)c1ccco1 (configuration not stated)", 11.3),
]

Incoming: Which PI value is on record for CC(=O)NC(C(=O)NCc1ccccc1)c1ccco1 (configuration not stated) ?
Outgoing: 3.9

Incoming: Subsequent entry: CC(=O)NC(C(=O)NCc1ccccc1)c1ncco1 (configuration not stated)
Outgoing: 3.7

Incoming: Subsequent entry: CC(=O)NC(C(=O)NCc1ccccc1)c1nccs1 (configuration not stated)
Outgoing: 5.7

Incoming: Subsequent entry: CC(=O)N[C@H](C(=O)NCc1ccccc1)c1ccco1 (stereo in doubt; 4)
Outgoing: 3.9

----------
- Assay Remarks: Neurologic toxicity determined using horizontal screen test in mice
- Type: organism-based
- Run Parameters: mouse, in vivo
Outcome Measure: TD50

Incoming: Which TD50 value is on record for CC(=O)NC(C(=O)NCc1ccccc1)c1ccccc1 (centres undefined) ?
Outgoing: > 40 mg/kg

Incoming: Subsequent entry: CC(=O)NC(C(=O)NCc1ccccc1)c1ccco1 (centres undefined)
Outgoing: ~40 mg/kg

Incoming: Subsequent entry: CC(=O)NC(C(=O)NCc1ccccc1)c1ccsc1 (centres undefined)
Outgoing: > 100 mg/kg

Incoming: Subsequent entry: CC(=O)N[C@@H](C(=O)NCc1ccc(F)cc1)c1ccco1
Outgoing: 14.4 mg/kg

----------
- Assay Remarks: Neurologic toxicity determined using rotarod test in mice
- Format: organism-based
- Run Parameters: mouse, in vivo
// TD50 lookup, one value per entry
The figure you give is taken to be in mg/kg; do not add the unit.

# Compound, Reading
measured = [
    ("CC(=O)NC(C(=O)NCc1ccccc1)c1nccs1 (configuration not stated)", 69.1),
]

The record that follows has no TD50 shown yet.
Incoming: Which TD50 value is on record for CC(=O)NC(C(=O)NCc1ccccc1)c1ncco1 (configuration not stated) ?
Outgoing: 38.6

----------
- Assay Remarks: Neurologic toxicity determined using horizontal screen test in mice in experiment 1
- Assay type: organism-based
- Run Parameters: mouse, in vivo
Outcome Measure: TD50

# Compound, Reading
rows = [
    ("CC(=O)NC(C(=O)NCc1ccccc1)c1ccc[nH]1 (configuration not stated)", "> 30 mg/kg"),
]

Incoming: Which TD50 value is on record for CC(=O)NC(C(=O)NCc1ccccc1)c1cccs1 (configuration not stated) ?
Outgoing: > 30 mg/kg

----------
- Species: Mus musculus
- Assay Remarks: Effective dose required for maximal electroshock (MES)-induced seizures in mice.
- Format: functional
- Run Parameters: Mus musculus; read-out: ED50
// ED50 lookup, one value per entry

Worked examples, 5 compounds total:
# Compound, Outcome Measure, Reading
records = [
    ("CC(=O)NC(C(=O)NCc1ccc[n+]([O-])c1)c1ccco1 (configuration not stated)", "ED50", "~30 mg/kg"),
    ("CC(=O)NC(C(=O)NNc1ccccn1)c1ccco1 (configuration not stated)", "ED50", "> 100 mg/kg"),
    ("C/C(S)=N/C(/C(S)=N/Cc1ccccc1)c1ccco1 (configuration not stated)", "ED50", "> 100 mg/kg"),
    ("CC(=O)NC(C(=O)NCc1ccccc1)c1ncc[nH]1 (configuration not stated)", "ED50", "> 100 mg/kg"),
    ("CC(=O)NC(C)(C(=O)NCc1ccccc1)c1ccco1 (configuration not stated)", "ED50", "> 300 mg/kg"),
]

Incoming: Which ED50 value is on record for CC(=O)NC(C(=O)NCc1ccccc1)c1c[nH]cn1 (configuration not stated) ?
Outgoing: > 100 mg/kg

Incoming: Subsequent entry: CC(=O)NC(C(=O)NCc1ccccc1)n1cnnn1 (configuration not stated)
Outgoing: > 300 mg/kg

Incoming: Subsequent entry: CC(=O)NC(C(=O)NCc1cccnc1)c1ccco1 (configuration not stated)
Outgoing: ~30 mg/kg

Incoming: Subsequent entry: CC(=O)NC(C(=O)NCc1ccncc1)c1ccco1 (configuration not stated)
Outgoing: > 100 mg/kg

Incoming: Subsequent entry: CC(=O)NC(C(=O)NCc1cc[n+]([O-])cc1)c1ccco1 (configuration not stated)
Outgoing: > 100 mg/kg

Incoming: Subsequent entry: CC(=O)NC(C(=O)NCc1ccccc1)c1nc[nH]n1 (configuration not stated)
Outgoing: > 100 mg/kg

Incoming: Subsequent entry: CC(=O)NC(C(=O)NCc1ccccc1)n1ccnc1 (configuration not stated)
Outgoing: > 100 mg/kg
